Where do these numbers come from? They come from patent US20070128217A1.

Kindly state Binding of serum 37 to linear peptides of protein E of SARS-CoV Urbani for each of the entries shown.
System: antibodies in sera from SARS patients (sera 1a, 1b, 2, 6, 37, 62, London, SARS-yellow, SARS-green)
Type: binding, human

Look up Binding of serum 37 to linear peptides of protein E of SARS-CoV Urbani for the entries below, preserving their order.
1. ETGTLIVNSVLLFLA
2. VNSVLLFLAFVVFLL
3. MYSFVSEETGTLIVN
4. SVLLFLAFVVFLLVT
5. TALRLCAYCCNIVNV
6. RLCAYCCNIVNVSLV
7. FVVFLLVTLAILTAL

Reply text:
[0.4, 0.5, 0.8, 0.8, 0.5, 0.5, 0.4]

Inquiry: Field request: Binding of serum 37 to linear peptides of protein E of SARS-CoV Urbani | item: "GTLIVNSVLLFLAFV"
Reply text: 0.8
